Here we list molecules with their recorded Te % (SEM) 4 h when tested on HBMEC monolayer.

{"Molecule": "C[C@@H]1CCCC2=CC[C@@H]3[C@@H](C3(C)C)[C@]21C [(-)-Aristolene]", "Tested System": "HBMEC monolayer", "Te % (SEM) 4 h": "71.3 (1.6) %"}
{"Molecule": "C=C(C)C1CCC2(C)OC2C1 (stereo not shown) [Limonene Epoxide]", "Tested System": "HBMEC monolayer", "Te % (SEM) 4 h": "42.4 (3.2) %"}
{"Molecule": "CCOC(=O)/C=C/c1ccc(O)c(O)c1 [Ethyl caffeate]", "Tested System": "HBMEC monolayer", "Te % (SEM) 4 h": "35.7 (0.3) %"}
{"Molecule": "CC1=CC[C@@H](C(C)(C)O)CC1 [L-α-Terpineol]", "Tested System": "HBMEC monolayer", "Te % (SEM) 4 h": "59.3 (0.4) %"}
{"Molecule": "CC(=O)OC(C)(C)[C@@H]1CC[C@@]2(C)CO[C@]3(C)C=CO[C@]23C1 [Phytuberin]", "Tested System": "HBMEC monolayer", "Te % (SEM) 4 h": "79.6 (2.2) %"}
{"Molecule": "Cc1c(O)cc2c(c1C)O[C@](C)(CCC[C@H](C)CCC[C@H](C)CCCC(C)C)CC2 [γ-Tocopherol]", "Tested System": "HBMEC monolayer", "Te % (SEM) 4 h": "42.0 (0.8)/30.0 (1.6) %"}
{"Molecule": "CC(C)C1CCC2(C)C3CC=C(C=O)C2C13 (stereo not shown) [Ylangenal]", "Tested System": "HBMEC monolayer", "Te % (SEM) 4 h": "36.9 (0.4) %"}
{"Molecule": "CC1=C[C@@H]2C(=C(C)CC[C@H]2C(C)C)CC1 [δ-Cadinene]", "Tested System": "HBMEC monolayer", "Te % (SEM) 4 h": "28.9 (2.4) %"}

Record C=CC(C)(O)CCCC(C)CCCC(C)CCCC(C)C (stereo not shown) [Isophytol] . Reported Te % (SEM) 4 h: 58.0 (1.7) %

Record Cc1cc(O)c(C)c2c1O[C@](C)(CCC[C@H](C)CCC[C@H](C)CCCC(C)C)CC2 [β-Tocopherol] . Reported Te % (SEM) 4 h: 15.2 (0.8) %

Record O=C(O)c1ccc(O)cc1 [p-Salycilic acid] . Reported Te % (SEM) 4 h: 43.4 (1.3) %

Record C=CC1(C)CCC(=C(C)C)CC1C(=C)C (stereo not shown) [γ-Elemene] . Reported Te % (SEM) 4 h: 41.8 (1.7) %

Record C=CC(=C)CC/C=C(\C)CC/C=C(\C)C=O [β-Sinensal] . Reported Te % (SEM) 4 h: 38.2 (2.4) %

Record CC[C@@H](CC[C@@H](C)[C@H]1CC[C@H]2[C@@H]3CC=C4C[C@@H](O)CC[C@]4(C)[C@H]3CC[C@]12C)C(C)C [γ-Sitosterol] . Reported Te % (SEM) 4 h: 19.2 (1.3)/12.1 (0.6) %

Record C=C[C@]1(C)CC[C@@H](C(C)(C)O)C[C@H]1C(=C)C [Elemol] . Reported Te % (SEM) 4 h: 25.4 (1.6) %

Record CC(C)=CCC/C(C)=C/CC/C(C)=C/CC/C(C)=C/CO [Geranylgeraniol] . Reported Te % (SEM) 4 h: 56.6 (3.1) %

Record C=C1CCC[C@]2(C)CC[C@H]3C(C)(C)C[C@]132 [β-Panasinsene] . Reported Te % (SEM) 4 h: 34.8 (1.0) %

Record CC1(C)C[C@H](O)C[C@]2(C)OC(=O)C=C12 [Isololiolide] . Reported Te % (SEM) 4 h: 61.4 (4.3) %

Record COc1cc(/C=C/C(=O)O)cc(OC)c1O [Sinapic acid] . Reported Te % (SEM) 4 h: 44.4 (3.2)/18.6 (0.5) %

Record O=C(/C=C/c1ccc(O)c(O)c1)OC1[C@H](O)CC(O)(C(=O)O)C[C@H]1O (stereo partly shown) [Caffeoylquinic acid] . Reported Te % (SEM) 4 h: 74.8 (2.9) %

Record C=C(C)[C@H]1CC=C(C)CC1 [Limonene] . Reported Te % (SEM) 4 h: 59.3 (2.9) %

Record C=C1/C=C/[C@H](C(C)C)CC/C(C)=C/CC1 [Germacrene D] . Reported Te % (SEM) 4 h: 6.6 (0.4) %
